For each of the molecules below, state its Solubility.
assay: Solubility in PBS; assay type: physicochemical
Returns: string containing the numeric result and its unit.

For this molecule ( CC(=O)N1CCC[C@]12CC=CCCCC1(CCCC=CCCCOC(=O)N3CC[C@@](C(=O)N[C@@H](Cc4ccccc4)C(=O)N[C@@H](Cc4csc5ccccc45)C(=O)N[C@@H](CCC(N)=O)C(N)=O)(C3)NC(=O)[C@H](CC(N)=O)NC(=O)[C@H](Cc3ccccc3)NC(=O)[C@H](C)NC(=O)[C@H](C)NC(=O)[C@H](CCC(=O)O)NC(=O)[C@H](CC(=O)O)NC1=O)NC(=O)[C@H](CC(C)(C)C)NC(=O)[C@H](CC(=O)O)NC2=O (some centres unmarked) [I-685] ), measured Solubility is 44 µM

For this molecule ( CC(=O)N1CCC[C@]12CC=CCCCC1(CCCC=CCCCOC(=O)N3CC[C@@](C(=O)N[C@@H](Cc4ccsc4)C(=O)N[C@@H](Cc4csc5ccccc45)C(=O)N[C@@H](CCC(N)=O)C(N)=O)(C3)NC(=O)[C@H](Cc3ccccc3)NC(=O)[C@H](Cc3ccccc3)NC(=O)[C@H](C)NC(=O)[C@H](CCCCNC(=O)c3ccc(-n4cc(CNC(=O)c5ccc6c(c5)C5(OC6=O)c6ccc(O)cc6Oc6cc(O)ccc65)nn4)cc3)NC(=O)[C@H](CC(C)C)NC(=O)[C@H](CC(=O)O)NC1=O)NC(=O)[C@H](CC(C)(C)C)NC(=O)[C@H](CC(=O)O)NC2=O (some centres unmarked) ), measured Solubility is 10 µM

----------
molecular target: full-length beta-Catenin (Uniprot ID P35222) (Homo sapiens, UniProt P35222); construct: 10 nM full-length beta-Catenin (Uniprot ID P35222); assay: Fluorescence polarization IC50 (beta-catenin / 5FAM-TCF4 10-53 competition); type: binding; settings: fluorescence polarization; read-out: beta-Catenin FP IC50
Sequence (P35222 whole entry): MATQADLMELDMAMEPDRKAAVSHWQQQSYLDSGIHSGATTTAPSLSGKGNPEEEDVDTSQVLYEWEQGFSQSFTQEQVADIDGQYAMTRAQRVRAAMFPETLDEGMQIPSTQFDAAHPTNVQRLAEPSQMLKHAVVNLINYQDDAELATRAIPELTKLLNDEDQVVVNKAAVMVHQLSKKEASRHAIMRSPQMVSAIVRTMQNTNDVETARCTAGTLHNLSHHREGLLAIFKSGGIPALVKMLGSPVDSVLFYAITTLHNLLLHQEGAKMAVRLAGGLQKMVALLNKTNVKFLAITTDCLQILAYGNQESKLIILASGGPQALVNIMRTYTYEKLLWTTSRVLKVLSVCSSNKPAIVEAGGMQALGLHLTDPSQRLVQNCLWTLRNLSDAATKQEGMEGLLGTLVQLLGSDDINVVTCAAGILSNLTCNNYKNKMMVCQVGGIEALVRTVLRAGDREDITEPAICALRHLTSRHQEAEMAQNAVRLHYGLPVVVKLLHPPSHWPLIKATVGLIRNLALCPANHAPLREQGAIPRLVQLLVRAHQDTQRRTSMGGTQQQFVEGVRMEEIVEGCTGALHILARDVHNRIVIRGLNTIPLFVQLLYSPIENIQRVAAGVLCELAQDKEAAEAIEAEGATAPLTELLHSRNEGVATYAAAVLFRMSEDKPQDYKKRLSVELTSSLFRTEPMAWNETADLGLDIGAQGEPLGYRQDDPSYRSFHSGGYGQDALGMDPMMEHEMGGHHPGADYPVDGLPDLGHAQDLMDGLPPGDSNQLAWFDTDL
For each of the compounds below, state its IC50.
Returns: string containing the numeric result and its unit.

Entry CC(=O)N1CCC[C@]12CC=CCCCC1(CCCC=CCCCOC(=O)N3CC[C@@](C(=O)N[C@@H](Cc4ccsc4)C(=O)N[C@@H](Cc4csc5ccccc45)C(=O)N[C@@H](CCC(N)=O)C(N)=O)(C3)NC(=O)[C@H](CC(C)(C)C)NC(=O)[C@H](Cc3ccccc3)NC(=O)[C@H](C)NC(=O)[C@H](C)NC(=O)[C@H](CN(CC(=O)O)CC(F)(F)F)NC(=O)[C@H](CC(=O)O)NC1=O)NC(=O)[C@H](CC(C)(C)C)NC(=O)[C@H](CC(=O)O)NC2=O (stereo partly drawn) [I-1773] , full-length beta-Catenin (Uniprot ID P35222) (Homo sapiens, UniProt P35222) data, IC50 value: 32 nM

Entry CC(=O)N1CCC[C@]12CC=CCCCC1(CCCC=CCCCOC(=O)N3CC[C@@](C(=O)N[C@@H](Cc4ccsc4)C(=O)N[C@@H](Cc4csc5ccccc45)C(=O)N[C@@H](C)C(N)=O)(C3)NC(=O)[C@H](CC(C)C)NC(=O)[C@H](Cc3ccccc3)NC(=O)[C@H](C)NC(=O)C(C)(C)NC(=O)[C@H](Cc3cccc(C(=O)O)c3)NC(=O)[C@H](CC(=O)O)NC1=O)NC(=O)[C@H](CC(C)(C)C)NC(=O)[C@H](CC(=O)O)NC2=O (stereo partly drawn) [I-1920] , full-length beta-Catenin (Uniprot ID P35222) (Homo sapiens, UniProt P35222) data, IC50 value: 18 nM

Entry CC(=O)N1CCC[C@]12CC=CCCCC1(CCCC=CCCCOC(=O)N3CC[C@@](C(=O)N[C@@H](Cc4ccccc4)C(=O)N[C@@H](Cc4csc5ccccc45)C(=O)N[C@@H](CCC(N)=O)C(N)=O)(C3)NC(=O)[C@H](CC(C)C)NC(=O)[C@H](Cc3ccccc3)NC(=O)[C@H](C)NC(=O)[C@H](CCCCNC(C)C)NC(=O)[C@H]([C@@H](C)O)NC(=O)[C@H](CC(=O)O)NC1=O)NC(=O)[C@H](CC1CCCCC1)NC(=O)[C@H](CC(N)=O)NC2=O (stereo partly drawn) [I-2448] , full-length beta-Catenin (Uniprot ID P35222) (Homo sapiens, UniProt P35222) data, IC50 value: 84 nM

Entry CC(=O)N1CCC[C@]12CC=CCCCC1(CCCC=CCCCOC(=O)N3CC[C@@](C(=O)N[C@@H](Cc4ccsc4)C(=O)N[C@@H](Cc4csc5ccccc45)C(=O)N[C@@H](C)C(N)=O)(C3)NC(=O)[C@H](CC(N)=O)NC(=O)[C@H](Cc3ccccc3)NC(=O)[C@H](C)NC(=O)[C@H](C)NC(=O)[C@H]([C@@H](C)O)NC(=O)[C@H](CC(N)=O)NC1=O)NC(=O)[C@H](CC(C)(C)C)NC(=O)[C@H](CC(=O)O)NC2=O (stereo partly drawn) [I-2143] , full-length beta-Catenin (Uniprot ID P35222) (Homo sapiens, UniProt P35222) data, IC50 value: 217 nM

Entry CC(=O)N1CCC[C@]12CC=CCCCC1(CCCC=CCCCOC(=O)N3CC[C@@](C(=O)N[C@@H](Cc4ccsc4)C(=O)N[C@@H](Cc4csc5ccccc45)C(=O)N[C@H](C)C(N)=O)(C3)NC(=O)[C@H](CC(C)C)NC(=O)[C@H](Cc3ccccc3)NC(=O)[C@H](C)NC(=O)[C@H](C)NC(=O)[C@H](Cc3cccc(C(=O)O)c3)NC(=O)[C@H](CC(=O)O)NC1=O)NC(=O)[C@H](CC(C)(C)C)NC(=O)[C@H](CC(=O)O)NC2=O (stereo partly drawn) [I-2090] , full-length beta-Catenin (Uniprot ID P35222) (Homo sapiens, UniProt P35222) data, IC50 value: 11 nM

Entry CC(=O)N1CCC[C@]12CC=CCCCC1(CCCC=CCCCCCC[C@@](C)(C(=O)N[C@@H](Cc3ccccc3Cl)C(=O)N[C@@H](Cc3csc4ccccc34)C(=O)N[C@@H](Cc3c[nH]nn3)C(N)=O)NC(=O)[C@H](CC(C)C)NC(=O)[C@H](Cc3ccccc3)NC(=O)[C@H](C)NC(=O)[C@H](C)NC(=O)[C@H](CC(=O)O)NC(=O)[C@H](CC(=O)O)NC1=O)NC(=O)[C@H](CC(C)(C)C)NC(=O)[C@H](CC(=O)O)NC2=O (stereo partly drawn) [I-1192] , full-length beta-Catenin (Uniprot ID P35222) (Homo sapiens, UniProt P35222) data, IC50 value: 81.5 nM

Entry CC(=O)N1CCC[C@]12CC=CCCCC1(CCCC=CCCCOC(=O)N3CC[C@@](C(=O)N[C@@H](Cc4ccsc4)C(=O)N[C@@H](Cc4csc5ccccc45)C(=O)N[C@@H](CC(=O)N(C)C)C(N)=O)(C3)NC(=O)[C@H](CC(N)=O)NC(=O)[C@H](Cc3ccccc3)NC(=O)[C@H](C)NC(=O)C(C)(C)NC(=O)[C@H]([C@@H](C)O)NC(=O)[C@H](CC(N)=O)NC1=O)NC(=O)[C@H](CC(C)(C)C)NC(=O)[C@H](CC(=O)O)NC2=O (stereo partly drawn) [I-2494] , full-length beta-Catenin (Uniprot ID P35222) (Homo sapiens, UniProt P35222) data, IC50 value: 102 nM

Entry CC(=O)N1CCC[C@]12CC=CCCCC1(CCCC=CCCCOC(=O)N3CC[C@@](C(=O)N[C@@H](Cc4ccccc4)C(=O)N[C@@H](Cc4csc5ccccc45)C(=O)N[C@@H](CCC(N)=O)C(N)=O)(C3)NC(=O)[C@H](CC(N)=O)NC(=O)[C@H](Cc3ccccc3)NC(=O)[C@H](C)NC(=O)[C@H](C)NC(=O)[C@H](CCC(=O)O)NC(=O)[C@H](CC(=O)O)NC1=O)NC(=O)[C@H](C)NC(=O)[C@H](CC(=O)O)NC2=O (stereo partly drawn) [I-462] , full-length beta-Catenin (Uniprot ID P35222) (Homo sapiens, UniProt P35222) data, IC50 value: 28 nM

Entry CC(=O)N1CCC[C@]12CC=CCCCC1(CCCC=CCCCOC(=O)N3CC[C@@](C(=O)N[C@@H](Cc4cccs4)C(=O)N[C@@H](Cc4csc5ccccc45)C(=O)N[C@@H](CCC(N)=O)C(N)=O)(C3)NC(=O)[C@H](CC(N)=O)NC(=O)[C@H](Cc3ccccc3)NC(=O)[C@H](C)NC(=O)[C@H](C)NC(=O)[C@H]([C@@H](C)O)NC(=O)[C@H](CC(N)=O)NC1=O)NC(=O)[C@H](CC(C)(C)C)NC(=O)[C@H](CC(=O)O)NC2=O (stereo partly drawn) [I-1736] , full-length beta-Catenin (Uniprot ID P35222) (Homo sapiens, UniProt P35222) data, IC50 value: 458 nM
